Entries annotated with measured SKW3 FACS Binning OKT4a anti-hu A647 Secondary
target: T1, human CD4 on cells (SKW3 cells; human PBMCs) (human, UniProt P01730 26-458); test: FACS binning on SKW3 cells pre-incubated with supernatant; competitor OKT4a read with anti-human A647 secondary; background 5000, max binding 35000
T1 construct: whole, on cells; SKW3 CD4 knockout cells served as the negative cell line; also called hCD4
measurement_type: SKW3 FACS Binning OKT4a anti-hu A647 Secondary

binder	reported
75110_13P22A (antibody, IgG1, V domains shown, Tested as non-clonal AlivaMab Mouse Kappa hybridoma supernatant: human variable domains and human kappa, mouse Fc) VH: QVQLQQWGAGLLKPSETLSLTCAAYGGSFSGYYWSWIRQSPGKGLEWIGEINQSGNTNYNPSLKSRVTISADTSKNQFSLKLSSVTAADTAVYYCARVLNWFDYWGQGILVTVSS VL: DIQMTQSPSSVSASVGDRVTITCRASQGISDWLAWYQQKSGKAPDLLIFAASSLQSGVPSRFSGSGSGTDFTLTISSLQPEDFATYYCQQANSFPYTFGQGTKLEIK	6220
75110_07B16A (antibody, IgG1, V domains shown, Tested as non-clonal AlivaMab Mouse Kappa hybridoma supernatant: human variable domains and human kappa, mouse Fc) VH: QVQLQQWGAGLLKPSETLSLTCAVYGGSFSGYYWSWIRQSPGKGLEWIGEINQSGSTNYNPSLKSRVTISVDTSKDQFSLKLSSVTAADTAVYYCARVINWFDSWGQGSLVTVSS VL: DIQMTQSPSSVSASVGDRVTITCRASQGISSWLAWYQQKPGKAPKLLIYDASSFQSGVPSRFSGSGSGTDFTLTISSLQTDDFATYYCQQANSFPYTFGQGTKLEIK	5320
75110_01J17A (antibody, IgG1, V domains shown, Tested as non-clonal AlivaMab Mouse Kappa hybridoma supernatant: human variable domains and human kappa, mouse Fc) VH: EVQLVESGGGLVQPGGSLRLSCAASGFTFSSYDMHWVRQGTGKGLEWVSTIGTADDTYYPGSVKGRFTISRENAENSLYLQMNSLRAGDTAVYYCARGGDYYYGMDVWGQGTTVTVSS VL: EIVLAQSPGTLSLSPGERATLSCRASQSVYISYLAWYQQKPGQAPRLLIYGASSRATGIPDRFSGSGSGTDFTLTITRLEPEDFAVYYCQQFGSSPFTFGPGTKVDFK	37700
75110_14P05A (antibody, V domains shown, Tested as non-clonal AlivaMab Mouse Kappa hybridoma supernatant: human variable domains and human kappa, mouse Fc) VH: EVQLVESGGGLVQPGGSLRLSCAASGFTFSSYDVHWVRQATGKGLEWVSTIGTAGDTYYPGSVKGRFTISRENAKNSLYLQMNSLRAGDTAVYYCARGGFYYYGMDVWGQGTTVTVSS VL: EIVLTQSPGTLSLSPGERATLSCRASQSVSSSYLAWYQQKPGQTPRLLIYGASSRATGIPDRFSGSGSGTDFTLTISRLEPEDFAVFYCQQSGSSPFTFGPGTKVDVK	6110
75110_01K10A (antibody, V domains shown, Tested as non-clonal AlivaMab Mouse Kappa hybridoma supernatant: human variable domains and human kappa, mouse Fc) VH: EVQLVESGGALVQPGGSLRLSCAASGFTFRNYDMHWVRQATGKGLEWVSTIGTAGDTYYPGSVKGRFTISRENAKNSLYLQMNSLRAGDTAVYYCARGGDYYYGMDVWGQGTTVTVSS VL: EIVLTQSPDTLSLSPGERATLSCRASQSLSSVYLAWYQQKPGQAPRLLIYGASSRATGIPDRFSGTGSGTDFTLTISRLEPEDFAVYYCQQYGSSPFTFGPGTKVDIK	30000

Data origin, for the record: patent US20220112288A1
